Assay: Determination of inhibitor concentration in mouse plasma after intraperitoneal and oral dosing
Assay type: in vivo
Conditions: female, PO, 200 mg/kg, vehicle 0.5% CMC, read-out: Cmin (7 hr conc.)
So I've got a bunch of molecules here, and I need their concentration at 7 h values.
Your answer should be a plain number; it is taken to be in ng/mL.

Entry CCn1nc(C)cc1C(=O)Nc1cccc(C(=O)c2ccc3c(/C=C/c4ccccn4)n[nH]c3c2)c1.Cl [Example 59(a), Hydrochloride] : reported concentration at 7 h = ?
12100

Which concentration at 7 h value is on record for Cc1cc(C(=O)Nc2cc(Nc3ccc4c(/C=C/c5ccccn5)n[nH]c4c3)ccc2F)n(C)n1.Cl [Example 59(d), Hydrochloride] ?
12700
